# target_under_test: T1, potato lectin (Solanum tuberosum, UniProt Q9S8M0)
# T1 construct: purchased Sigma
# T1 sequence (Q9S8M0 whole entry, looked up): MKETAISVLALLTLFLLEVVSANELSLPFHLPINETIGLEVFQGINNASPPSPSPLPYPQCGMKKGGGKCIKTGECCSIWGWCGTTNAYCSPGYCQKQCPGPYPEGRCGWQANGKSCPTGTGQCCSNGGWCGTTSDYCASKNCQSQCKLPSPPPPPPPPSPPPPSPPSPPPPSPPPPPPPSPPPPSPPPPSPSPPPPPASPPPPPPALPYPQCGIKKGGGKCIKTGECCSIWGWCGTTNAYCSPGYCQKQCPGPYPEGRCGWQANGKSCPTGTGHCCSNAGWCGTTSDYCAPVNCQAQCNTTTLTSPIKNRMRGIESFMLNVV
# method_notes: VHH binding to potato lectin in ELISA
# assay_context: Table 2; Blank (no antigen coating); VHH 3 μg/ml
assay_endpoint: absorbance at 405 nm
In your answer, state the number alone without any accompanying words.

Please review the following examples before continuing.
VHH 5G5: VHH sequence; SEQ ID NO:24 by order of the list (protein, listed as Lama glama, 5G5) VHH: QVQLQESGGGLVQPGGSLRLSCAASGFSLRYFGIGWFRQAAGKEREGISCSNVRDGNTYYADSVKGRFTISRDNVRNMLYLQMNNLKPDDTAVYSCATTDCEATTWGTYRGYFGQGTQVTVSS
0.073
VHH 7D2: VHH sequence; SEQ ID NO:28 by order of the list (protein, listed as Lama glama, 7D2) VHH: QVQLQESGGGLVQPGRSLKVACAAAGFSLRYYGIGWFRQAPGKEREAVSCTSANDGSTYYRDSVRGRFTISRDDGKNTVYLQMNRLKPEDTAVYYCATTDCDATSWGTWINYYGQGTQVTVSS
0.072
VHH 3E6: VHH binding gum arabic, potato lectin and leaf surface; SEQ ID NO:7 by order of the list (protein, listed as Lama glama, 3E6) VHH: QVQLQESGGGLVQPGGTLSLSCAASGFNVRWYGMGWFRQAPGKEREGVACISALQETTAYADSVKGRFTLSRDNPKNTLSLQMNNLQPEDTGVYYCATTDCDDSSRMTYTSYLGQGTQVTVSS
0.067
VHH 5C4: VHH sequence; SEQ ID NO:18 by order of the list (protein, listed as Lama glama, 5C4) VHH: QVQLQESGGGLVQPGGSLRLSCAASGFSLRYFGIGWFRQVAGKEREPVSCSNVRDGNTYYADSVKGRFTISRDNVRNTLYLQMNSLKPEDTAVYSCATTDCEATTWGTYRGYFGQGTQVTVSS
0.071

# next molecule below
Indicate its recorded absorbance at 405 nm; the molecule in question is VHH 5D4: VHH sequence; SEQ ID NO:20 by order of the list (protein, listed as Lama glama, 5D4) VHH: QVQLQESGGGLVQPGGSLRLSCAASGFDMRRFGIGWFRQVAGKEREGVSCSNVHDGTTYYTNDVKGRFTIVRDNTKNMLYLQMNKLRPEDTAVYSCATTDCEATAWGTYRGYFGQGTQVTVSS
0.072
